- SYSTEM: T1, hRSV FTM-NN (membrane anchorless form of the Long fusion protein, 70 kDa) (human respiratory syncytial virus, …, UniProt P12568 26-524)
- T1 construct: also called FTM-NN (Long); hRSV FTM-protein
- TEST: SPR (Biacore), FTM-NN amine-coupled on CM5 chip, 1:1 Langmuir fit
Parameter threshold = 400000 M⁻¹ s⁻¹. Response is satisfied when kon meets or exceeds it, else not satisfied.

Query: Confirm if kon reported for the binder Nanobody 1B2 (VHH, c-myc/His6-tagged; also called PMP1B2; PRSV1B2) VHH: EVQLVESGGGLVQAGGSLRLSCAASGPTFSADTMGWFRQAPGKEREFVATIPWSGGIAYYSDSVKGRFTMSRDNAKNTVDLQMNSLKPEDTALYYCAGSSRIYIYSDSLSERSYDYWGQGTQVTVSS is 400000 M⁻¹ s⁻¹ or above.
Reply: not satisfied

Query: Again, but for Nanobody 19E2 (VHH, also called PMP19E2; PRSV19E2) VHH: EVQLVESGGGLVQPGGSLRLSCAASGLTLDYYALGWFRQAPGKEREGVSCISSSDHTTTYTDSVKGRFTISWDNAKNTLYLQMNSLKPEDTAVYYCAADPALGCYSGSYYPRYDFWGQGTQVTVSS
Reply: satisfied

Query: // same read-out, input: Nanobody 13A1 (VHH, also called PMP13A1; PRSV13A1) VHH: EVQLVESGGGLVQPGGSLRLSCAASGLTLDYYALGWFRQAPGKEREGVSCISSADHSTTYADSVKGRFTISWDNAKNTVYLQMNSLKPEDTAVYYCAADPALGCYSGNYYPRYDYWGQGTQVTVSS
Reply: satisfied

Query: Next record, please: Nanobody 7B2 (VHH, also called PMP7B2; PRSV7B2) VHH: EVQLVESGGGLVQAGDSLRLSCAASGRTFSSYAMGWFRQAPGKEREFVAAISWSDGSTYYADSVKGRFTISRDNAKNTVYLQMNSLKPEDTAVYYCAADLTSTNPGSYIYIWAYDYWGQGTQVTVSS
Reply: not satisfied

Query: Nanobody NC41 (VHH) VHH: EVQLVESGGGLVQAGGSLSISCAASGGSLSNYVLGWFRQAPGKEREFVAAINWRGDITIGPPNVEGRFTISRDNAKNTGYLQMNSLAPDDTAVYYCGAGTPLNPGAYIYDWSYDYWGRGTQVTVSS ?
Reply: satisfied

Query: Also need Nanobody 23E5 (VHH, also called PMP23E5; PRSV23E5) VHH: EVQLMESGGGLVQAGGSLRLSCAASGGTFSSYAMGWFRQAPGEERDFVAAIGWSGNSPYYAQFVKGRFTISRDNAKNTVHLQMNSLKPEDTAVYYCAAAHNTMGSDYEGYDYWGQGTQVTVSS , thanks.
Reply: not satisfied

Query: Try Nanobody 13E12 (VHH, also called PMP13E12; PRSV13E12) VHH: EVQLVESGGGLVQAGGSLRLSCAASGRTFSRYIMGWFRQAPGKEREFVGAISRSGDITSFADFVKGRFTMSRDNAKNTLYLQMNSLEPEDTAVYSCAANSDTYYIYSDIVVPERYDYWGQGTQVTVSS next.
Reply: not satisfied

Data origin, for the record: patent US20120301469A1
